# %Inh values compiled below
System: CSF1R-autoinhibited;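 also: KINOMEscan kinase panel screen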
Settings: concentration: 1 μM, replicates: in singlicate; n = 1
quantity.name: %Inh (%)

>>> measurement("CCn1c(-c2ccccn2)nc2cnccc21 [SB-736398]")
4
>>> measurement("Cc1nnc(-c2ccc3occ(-c4ccc(S(C)=O)cc4)c3c2)[nH]1 (centres unmarked)")
8
>>> measurement("O=C(Nc1n[nH]c2cc(-c3cccc(F)c3F)ccc12)C1CC1 [SB-733894]")
0
>>> measurement("COc1ccc(Nc2nccc(-c3cccc(NC(=O)c4cc5cc(F)ccc5[nH]4)c3)n2)cc1 [GSK1229782]")
57
>>> measurement("Cc1cccc(-c2nc(-c3ccc(S(C)(=O)=O)cc3)sc2-c2ccnc(NCCc3ccccc3)c2)c1")
1
